Biological target: human cholecystokinin-1 receptor (CCK-1R) (Homo sapiens, UniProt P32238)
Construct: host or cells: 1321-N1 cells
Sequence (P32238 1-428): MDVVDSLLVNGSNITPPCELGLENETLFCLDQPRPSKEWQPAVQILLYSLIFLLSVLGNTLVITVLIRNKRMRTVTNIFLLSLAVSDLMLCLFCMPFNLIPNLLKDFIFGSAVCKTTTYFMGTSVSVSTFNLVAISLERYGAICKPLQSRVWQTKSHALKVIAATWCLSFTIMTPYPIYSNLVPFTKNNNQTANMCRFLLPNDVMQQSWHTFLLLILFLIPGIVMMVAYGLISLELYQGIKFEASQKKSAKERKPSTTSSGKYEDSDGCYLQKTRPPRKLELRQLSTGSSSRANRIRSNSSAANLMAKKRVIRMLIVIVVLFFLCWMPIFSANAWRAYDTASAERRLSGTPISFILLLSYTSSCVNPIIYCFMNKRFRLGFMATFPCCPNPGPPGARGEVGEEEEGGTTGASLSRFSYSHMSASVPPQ
Assay: In vitro potency on CCK-1R, whole cell functional assay (IP1 accumulation, IP-One HTRF)
Format: cell-based
Conditions: ratio of functional EC50 values; >1 = preference for CCK-1R
Starred links: 1 amine or outer side, 2 acyl side, 3 side chain; linkers in the order of their positions; H or OH if unused. Non-standard residues stand in square brackets, D forms with d. Residues, ends and D or L forms follow the SMILES beside them. *: point of attachment. sY = N[C@@H](Cc1ccc(OS(=O)(=O)O)cc1)C(=O)O; C18 diacid = O=C(O)CCCCCCCCCCCCCCCCC(=O)*; γGlu = O=C(O)[C@H](CCC(=O)[*:2])N[*:1]; NMeF = CN[C@@H](Cc1ccccc1)C(=O)O; dNMeD = CN[C@H](CC(=O)O)C(=O)O; Nle = CCCC[C@H](N)C(=O)O; AEEA = NCCOCCOCC(=O)O
MEASURED ATTRIBUTE: CCK-1R selectivity (EC50 (CCK-2R)/EC50 (CCK-1R))
Number only, no unit.

GET /values?readout=CCK-1R selectivity (EC50 (CCK-2R)/EC50 (CCK-1R))&item= CCCC[C@H](NC(=O)[C@H](Cc1c[nH]c2ccccc12)NC(=O)CNC(=O)[C@H](CO)NC(=O)[C@H](Cc1ccc(OS(=O)(=O)O)cc1)NC(=O)[C@H](CC(=O)O)NC(=O)COCCOCCNC(=O)COCCOCCNC(=O)CC[C@H](NC(=O)CCCCCCCCCCCCCCCCC(=O)O)C(=O)O)C(=O)N(C)[C@H](CC(=O)O)C(=O)N(C)[C@@H](Cc1ccccc1)C(N)=O [Example 45] ({C18 diacid-γGlu-AEEA-AEEA}-D[sY]SGW[Nle][dNMeD][NMeF]-NH2)
3000
